SYSTEM UNDER TEST: NDM-1 (Klebsiella pneumoniae, UniProt C7C422)
Sequence (C7C422 whole entry, looked up, species assumed): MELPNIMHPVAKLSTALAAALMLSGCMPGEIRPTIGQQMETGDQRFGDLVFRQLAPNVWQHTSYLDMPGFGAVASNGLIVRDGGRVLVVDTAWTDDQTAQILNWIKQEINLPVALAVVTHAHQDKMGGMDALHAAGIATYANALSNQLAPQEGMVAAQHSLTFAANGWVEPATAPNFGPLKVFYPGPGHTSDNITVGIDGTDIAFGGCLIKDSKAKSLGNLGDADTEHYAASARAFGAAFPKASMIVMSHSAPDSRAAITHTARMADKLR
ASSAY METHOD TEXT: biochemical
Format: biochemical
MEASUREMENT CONDITIONS: fluorescence assay with CCF2-FA substrate; read-out: NDM-1 IC50
Listing of entries alongside the reported IC50.
# value in nM; strip the unit string

Use the examples below as a reference point.
Cn1cc2cc(-c3cccc(S(N)(=O)=O)c3-c3nnn[nH]3)ccc2n1 [Example 127] = 1.11
CC(C)(C)Cc1cccc(S(N)(=O)=O)c1-c1nnn[nH]1 [Example 159] = 34

Now, please, on to the next compound.
# IC50 measured on NDM-1 (Klebsiella pneumoniae, UniProt C7C422) for item NS(=O)(=O)c1nccc(-c2ccc(C(=O)NC3CCOCC3)cc2)c1-c1nnn[nH]1 [Example 186] = 97.1
